Ref: patent US20240293570A1

Consider the following compounds and their measured Polymer content (%) readings.
Assay: Stability (placement) test of ADCs at 40° C. in dark for 14 days, DAR and polymer content
Type: physicochemical
Conditions: Day 7, 40° C. in dark
*1 amine or outer side, *2 acyl side, *3 side chain or, on linkers, in order; H or OH if unused. Where a SMILES comes first, the peptide text is derived from it. [ ]: non-standard residue; d: D form. The star is where a group is joined. X2 = CO[C@@H]([C@H]1CCCN1[*:1])[C@@H](C)C(=O)[*:2]; Propanoyl(3-maleimido) = O=C1C=CC(=O)N1CCC(=O)*; Dil = CC[C@H](C)[C@H](NC)[C@@H](CC(=O)O)OC; X1 = O=C(CN1CCOCCN([*:1])CCOCC1)[*:2]; PABC = O=C(OCc1ccc(N[*:1])cc1)[*:2]; X3 = C[C@@H](N*)[C@@H](O)c1ccccc1; NMeV = CN[C@H](C(=O)O)C(C)C

Record excerpt, results attached:
C=C1C[C@@H]2CC[C@@]34C[C@H]5OC6C(O[C@H]7CC[C@H](CC(=O)C[C@@H]8[C@@H](OC)[C@@H](C[C@H](O)CNC(=O)CNC(=O)[C@H](Cc9ccccc9)NC(=O)CNC(=O)CNC(=O)CN9CCOCCOCCN(C(=O)CCCCCN%10C(=O)C=CC%10=O)CCOCCOCC9)O[C@H]8C[C@H]8O[C@@H](CC[C@@H]1O2)C[C@@H](C)C8=C)O[C@@H]7[C@@H]6O3)[C@H]5O4: 0.92%
CCc1c2c(nc3ccc(O)cc13)-c1cc3c(c(=O)n1C2)COC(=O)[C@@]3(CC)OC(=O)N(C)CCN(C)C(=O)COCNC(=O)[C@H](CC(N)=O)NC(=O)[C@H](C)NC(=O)[C@H](C)NC(=O)CN1CCOCCN(C(=O)CCN2C(=O)C=CC2=O)CCOCC1: 0.59%
CC[C@H](C)[C@@H]([C@@H](CC(=O)N1CCC[C@@H]1[C@H](OC)[C@@H](C)C(=O)N[C@H](C)[C@@H](O)c1ccccc1)OC)N(C)C(=O)[C@@H](NC(=O)[C@H](C(C)C)N(C)C(=O)OCc1ccc(NC(=O)CNC(=O)[C@H](Cc2ccccc2)NC(=O)CNC(=O)CN2CCOCCN(C(=O)CCN3C(=O)C=CC3=O)CCOCC2)cc1)C(C)C [Example 86] ({Propanoyl(3-maleimido)}-[X1]GFG[PABC][NMeV]V[Dil][X2]-X3): 0.99%
C=C1C[C@@H]2CC[C@@]34C[C@H]5OC6C(O[C@H]7CC[C@H](CC(=O)C[C@@H]8[C@@H](OC)[C@@H](C[C@H](O)CNC(=O)OCc9ccc(NC(=O)[C@H](CCCNC(N)=O)NC(=O)[C@@H](NC(=O)CN%10CCOCCN(C(=O)CCN%11C(=O)C=CC%11=O)CCOCC%10)C(C)C)cc9)O[C@H]8C[C@H]8O[C@@H](CC[C@@H]1O2)C[C@@H](C)C8=C)O[C@@H]7[C@@H]6O3)[C@H]5O4: 1.15%
C=C1C[C@@H]2CC[C@@]34C[C@H]5OC6C(O[C@H]7CC[C@H](CC(=O)C[C@@H]8[C@@H](OC)[C@@H](C[C@H](O)CNC(=O)CNC(=O)[C@H](Cc9ccccc9)NC(=O)CNC(=O)CN9CCOCCOCCN(C(=O)CCCCCN%10C(=O)C=CC%10=O)CCOCCOCC9)O[C@H]8C[C@H]8O[C@@H](CC[C@@H]1O2)C[C@@H](C)C8=C)O[C@@H]7[C@@H]6O3)[C@H]5O4: 1.31%
CC[C@@]1(O)C(=O)OCc2c1cc1n(c2=O)Cc2c-1nc1cc(F)c(C)c3c1c2[C@@H](NC(=O)COCNC(=O)CNC(=O)CNC(=O)CNC(=O)CN1CCOCCN(C(=O)CCN2C(=O)C=CC2=O)CCOCC1)CC3: 0.57%

Next compound, please.
**Query** Fill in the blank: the reported Polymer content (%) of `C=C1C[C@@H]2CC[C@@]34C[C@H]5OC6C(C[C@H]7CC[C@H](CC(=O)C[C@@H]8[C@@H](OC)[C@@H](C[C@H](O)CNC(=O)CNC(=O)[C@H](Cc9ccccc9)NC(=O)CNC(=O)CNC(=O)CCC(=O)N9CCOCCN(C(=O)CCN%10C(=O)C=CC%10=O)CCOCC9)O[C@H]8C[C@H]8O[C@@H](CC[C@@H]1O2)C[C@@H](C)C8=C)O[C@@H]7[C@@H]6O3)[C@H]5O4` is ____.
**Result** 0.72%
